method-description: Selectivity index, ratio of IC50 for rat L6 cells to IC50 for Trypanosoma brucei rhodesiense STIB900 trypomastigotes
Format: toxicity
cond: read-out: Ratio IC50
With a cut-off of 20, any selectivity ratio strictly below it is called true; any selectivity ratio meeting it or above is called false.

| structure-smiles-string | answer-label |
| --- | --- |
| O=C1C=C(c2cccc(OC(F)(F)F)c2)C(=O)c2ccccc21 | true |
| O=C1C=C(c2ccco2)C(=O)c2ccccc21 | false |
| CC(C)c1ccc(C2=CC(=O)c3ccccc3C2=O)cc1 | true |
| O=C1C=C(c2ccc(C(F)(F)F)cc2)C(=O)c2ccccc21 | false |
| O=C1C=C(c2ccc(F)nc2)C(=O)c2ccccc21 | true |
| O=C1C=C(c2ccc(C(=O)N3CCCCC3)cc2)C(=O)c2ccccc21 | true |

###

method-description: Selectivity index, ratio of IC50 for rat L6 cells to IC50 for Trypanosoma brucei rhodesiense STIB900 trypomastigotes
Type: toxicity
cond: read-out: Ratio IC50
Rule: selectivity ratio below 40 gives criterion met. Equal to or above 40 gives criterion not met.

| structure-smiles-string | answer-label |
| --- | --- |
| O=C1C=C(c2ccccc2)C(=O)c2ccccc21 | criterion not met |
| O=C1C=C(c2cnc(Cl)nc2)C(=O)c2ccccc21 | criterion met |
| O=C1C=C(c2ccc(OC(F)(F)F)cc2)C(=O)c2ccccc21 | criterion met |
| CS(=O)(=O)Nc1cccc(C2=CC(=O)c3ccccc3C2=O)c1 | criterion not met |
| N#Cc1ccc(C2=CC(=O)c3ccccc3C2=O)cc1 | criterion met |
| O=C1C=C(c2cnc3ccccc3c2)C(=O)c2ccccc21 | criterion met |
| Cc1ccc(C2=CC(=O)c3ccccc3C2=O)cc1 | criterion not met |
| O=C1C=C(c2ccc(F)cc2)C(=O)c2ccccc21 | criterion not met |
| O=C1C=C(c2cc3ccccc3o2)C(=O)c2ccccc21 | criterion not met |
| O=C1C=C(c2ccc(Cl)nc2)C(=O)c2ccccc21 | criterion met |

###

Tested on: Mycolicibacterium smegmatis
method-description: Antimycobacterial activity against Mycobacterium smegmatis mc2 155 ATCC 700084 assessed as fold reduction in EtBr MIC at half MIC concentration
Format: functional
quantity: fold change (FC)

| structure-smiles-string | quantity | cmp | result |
| --- | --- | --- | --- |
| O=C1C=C(c2ccc(F)cc2)C(=O)c2ccccc21 | fold change (FC) | > | 128 |
| N#Cc1ccc(C2=CC(=O)c3ccccc3C2=O)cc1 | fold change (FC) | > | 128 |
| O=C1C=C(c2ccc(Cl)nc2)C(=O)c2ccccc21 | fold change (FC) | = | 128 |
| O=C1C=C(c2ccco2)C(=O)c2ccccc21 | fold change (FC) | = | 2 |
| O=C1C=C(c2ccc(OC(F)(F)F)cc2)C(=O)c2ccccc21 | fold change (FC) | = | 128 |
| O=C1C=C(c2ccccc2)C(=O)c2ccccc21 | fold change (FC) | = | 4 |
| O=C1C=C(c2ccc(Cl)cc2)C(=O)c2ccccc21 | fold change (FC) | > | 128 |
| CC(C)c1ccc(C2=CC(=O)c3ccccc3C2=O)cc1 | fold change (FC) | = | 4 |
| O=C1C=C(c2ccc(C(=O)N3CCCCC3)cc2)C(=O)c2ccccc21 | fold change (FC) | = | 8 |
| O=C1C=C(c2cnc(Cl)nc2)C(=O)c2ccccc21 | fold change (FC) | = | 2 |
| O=C1C=C(c2cnc3ccccc3c2)C(=O)c2ccccc21 | fold change (FC) | = | 8 |
| O=C1C=C(c2ccc(C(F)(F)F)cc2)C(=O)c2ccccc21 | fold change (FC) | = | 4 |
| O=C1C=C(c2ccc(F)nc2)C(=O)c2ccccc21 | fold change (FC) | > | 128 |
| O=C1C=C(c2cc(F)cc(F)c2)C(=O)c2ccccc21 | fold change (FC) | = | 4 |
| CS(=O)(=O)Nc1cccc(C2=CC(=O)c3ccccc3C2=O)c1 | fold change (FC) | = | 128 |
| Cc1ccc(C2=CC(=O)c3ccccc3C2=O)cc1 | fold change (FC) | = | 2 |
| O=C1C=C(c2cccc(OC(F)(F)F)c2)C(=O)c2ccccc21 | fold change (FC) | = | 128 |
| O=C1C=C(c2cc3ccccc3o2)C(=O)c2ccccc21 | fold change (FC) | = | 2 |

###

System: Plasmodium falciparum
method-description: Antiplasmodial activity against Plasmodium falciparum NF54 erythrocytic stages assessed as parasite growth inhibition preincubated overnight followed by [G-3H]hypoxanthine addition and measured after 24 hrs by liquid scintillation counting method
Type: functional, organism-based
cond: read-out: pIC50 (converted)

| structure-smiles-string | study-target | readout-unit | IC50 |
| --- | --- | --- | --- |
| N#Cc1ccc(C2=CC(=O)c3ccccc3C2=O)cc1 | Plasmodium falciparum | nM | 1100 |
| O=C1C=C(c2ccc(OC(F)(F)F)cc2)C(=O)c2ccccc21 | Plasmodium falciparum | nM | 3890 |
| O=C1C=C(c2ccc(Cl)nc2)C(=O)c2ccccc21 | Plasmodium falciparum | nM | 66.1 |
| O=C1C=C(c2cc3ccccc3o2)C(=O)c2ccccc21 | Plasmodium falciparum | nM | 25100 |
| O=C1C=C(c2cccc(OC(F)(F)F)c2)C(=O)c2ccccc21 | Plasmodium falciparum | nM | 891 |
| O=C1C=C(c2ccco2)C(=O)c2ccccc21 | Plasmodium falciparum | nM | 2090 |

###

method-description: Selectivity index, ratio of IC50 for rat L6 cells to IC50 for Plasmodium falciparum NF54
Format: toxicity
cond: read-out: Ratio IC50
selectivity ratio: recorded values
quantity: selectivity ratio

| structure-smiles-string | quantity | result |
| --- | --- | --- |
| O=C1C=C(c2cccc(OC(F)(F)F)c2)C(=O)c2ccccc21 | selectivity ratio | 26.1 |
| CC(C)c1ccc(C2=CC(=O)c3ccccc3C2=O)cc1 | selectivity ratio | 6.9 |
| O=C1C=C(c2cc(F)cc(F)c2)C(=O)c2ccccc21 | selectivity ratio | 16.4 |
| O=C1C=C(c2ccc(C(=O)N3CCCCC3)cc2)C(=O)c2ccccc21 | selectivity ratio | 4.1 |
| O=C1C=C(c2cnc3ccccc3c2)C(=O)c2ccccc21 | selectivity ratio | 12.5 |
| O=C1C=C(c2ccc(Cl)cc2)C(=O)c2ccccc21 | selectivity ratio | 3.4 |
| CS(=O)(=O)Nc1cccc(C2=CC(=O)c3ccccc3C2=O)c1 | selectivity ratio | 3.6 |
| O=C1C=C(c2ccco2)C(=O)c2ccccc21 | selectivity ratio | 3.6 |
| O=C1C=C(c2ccccc2)C(=O)c2ccccc21 | selectivity ratio | 1.8 |
| O=C1C=C(c2ccc(OC(F)(F)F)cc2)C(=O)c2ccccc21 | selectivity ratio | 4.3 |
| O=C1C=C(c2ccc(F)nc2)C(=O)c2ccccc21 | selectivity ratio | 19.1 |
| Cc1ccc(C2=CC(=O)c3ccccc3C2=O)cc1 | selectivity ratio | 1.9 |
| O=C1C=C(c2ccc(C(F)(F)F)cc2)C(=O)c2ccccc21 | selectivity ratio | 14 |
| O=C1C=C(c2ccc(Cl)nc2)C(=O)c2ccccc21 | selectivity ratio | 463 |
| O=C1C=C(c2cnc(Cl)nc2)C(=O)c2ccccc21 | selectivity ratio | 2.2 |
| O=C1C=C(c2cc3ccccc3o2)C(=O)c2ccccc21 | selectivity ratio | 8.4 |
| O=C1C=C(c2ccc(F)cc2)C(=O)c2ccccc21 | selectivity ratio | 5 |
| N#Cc1ccc(C2=CC(=O)c3ccccc3C2=O)cc1 | selectivity ratio | 6.5 |

###

Let's look at some compounds and their measured IC50.
Tested on: Trypanosoma brucei rhodesiense
method-description: Trypanocidal activity against Trypanosoma brucei rhodesiense STIB900 trypomastigotes incubated for 72 hrs by Alamar blue assay
Type: functional, organism-based
cond: STIB900, 72 h, read-out: IC50
quantity: IC50 (nM)

| structure-smiles-string | result |
| --- | --- |
| O=C1C=C(c2ccc(C(=O)N3CCCCC3)cc2)C(=O)c2ccccc21 | 750 |
| O=C1C=C(c2cnc3ccccc3c2)C(=O)c2ccccc21 | 220 |
| O=C1C=C(c2cnc(Cl)nc2)C(=O)c2ccccc21 | 130 |
| O=C1C=C(c2cc(F)cc(F)c2)C(=O)c2ccccc21 | 240 |
| O=C1C=C(c2ccc(F)cc2)C(=O)c2ccccc21 | 220 |
| O=C1C=C(c2ccc(Cl)cc2)C(=O)c2ccccc21 | 220 |

###

Tested on: Trypanosoma brucei rhodesiense
method-description: Trypanocidal activity against Trypanosoma brucei rhodesiense STIB900 trypomastigotes incubated for 72 hrs by Alamar blue assay
Format: functional, organism-based
cond: STIB900, 72 h, read-out: pIC50 (converted)

| structure-smiles-string | study-target | IC50 |
| --- | --- | --- |
| O=C1C=C(c2cnc3ccccc3c2)C(=O)c2ccccc21 | Trypanosoma brucei rhodesiense | 224 nM |
| CC(C)c1ccc(C2=CC(=O)c3ccccc3C2=O)cc1 | Trypanosoma brucei rhodesiense | 1450 nM |
| O=C1C=C(c2cc3ccccc3o2)C(=O)c2ccccc21 | Trypanosoma brucei rhodesiense | 1350 nM |
| O=C1C=C(c2ccc(F)cc2)C(=O)c2ccccc21 | Trypanosoma brucei rhodesiense | 219 nM |
| O=C1C=C(c2ccco2)C(=O)c2ccccc21 | Trypanosoma brucei rhodesiense | 129 nM |
| O=C1C=C(c2ccccc2)C(=O)c2ccccc21 | Trypanosoma brucei rhodesiense | 55 nM |
| O=C1C=C(c2ccc(C(F)(F)F)cc2)C(=O)c2ccccc21 | Trypanosoma brucei rhodesiense | 75.9 nM |
| Cc1ccc(C2=CC(=O)c3ccccc3C2=O)cc1 | Trypanosoma brucei rhodesiense | 75.9 nM |
| O=C1C=C(c2ccc(F)nc2)C(=O)c2ccccc21 | Trypanosoma brucei rhodesiense | 138 nM |
| N#Cc1ccc(C2=CC(=O)c3ccccc3C2=O)cc1 | Trypanosoma brucei rhodesiense | 275 nM |
| O=C1C=C(c2ccc(Cl)nc2)C(=O)c2ccccc21 | Trypanosoma brucei rhodesiense | 2190 nM |
| O=C1C=C(c2cccc(OC(F)(F)F)c2)C(=O)c2ccccc21 | Trypanosoma brucei rhodesiense | 1780 nM |
